tested on: Rattus norvegicus; experiment: Total clearance in rat at 7 mg/kg, iv; format: ADME, organism-based; parameters: dose 7 mg/kg, route intravenous; details: in vivo
readoutType: clearance
State the result as a value with its unit after it.

Quick one: clearance of Cc1cc2cc(N=C(NC#N)N[C@H]3CCCCN(CC(=O)N4CCCC4)C3=O)ccc2o1 ?
1.7 mL/min/kg

* * *

test: Inhibition of tryptase
readoutType: Ki

Quick one: Ki of Cc1cc2cc(/N=C(/NC#N)N[C@H]3CCCCN(CC(=O)N4CCCC4)C3=O)ccc2o1 ?
> 16 µM

* * *

Target chain: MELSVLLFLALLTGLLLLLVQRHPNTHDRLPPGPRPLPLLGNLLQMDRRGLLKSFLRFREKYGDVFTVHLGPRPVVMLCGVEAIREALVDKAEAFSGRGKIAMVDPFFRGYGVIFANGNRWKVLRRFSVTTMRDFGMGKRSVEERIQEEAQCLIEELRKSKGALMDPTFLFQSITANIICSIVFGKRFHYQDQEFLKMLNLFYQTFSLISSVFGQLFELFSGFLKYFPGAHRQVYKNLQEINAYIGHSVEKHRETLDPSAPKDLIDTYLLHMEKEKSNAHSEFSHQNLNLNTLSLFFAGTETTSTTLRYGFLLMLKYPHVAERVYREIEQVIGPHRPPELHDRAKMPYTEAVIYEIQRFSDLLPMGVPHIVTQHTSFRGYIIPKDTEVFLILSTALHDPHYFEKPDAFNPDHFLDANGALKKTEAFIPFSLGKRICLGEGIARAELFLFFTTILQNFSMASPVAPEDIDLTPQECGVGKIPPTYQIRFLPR
readoutType: IC50

Quick one: IC50 of Cc1cc2cc(N=C(NC#N)N[C@H]3CCCCN(CC(=O)N4CCCC4)C3=O)ccc2o1 ?
> 40 µM
